Measured values drawn from patent US20250282728A1 for this set.

experimental-target: UniProt Q9Y2T6
assay-details: Ca2+ mobilization assay (FLIPR, Calcium5 dye), human GPR55
condition-set: HEK293 cells co-expressing PK-tagged human GPR55 and EA-tagged beta-arrestin; intracellular calcium increase
Experimental: This cell-based assay measures the ability of compounds to activate the GPR55 receptor by measuring changes in intracellular calcium levels. […] Dilution series of the compounds in assay buffer were added to the cells in duplicate wells and compound-mediated real-time increases in intracellular calcium concentration were recorded as increased fluorescence using the Molecular Devices FLIPR instrument. […]
endpoint-label: EC50

Below are worked cases with known answers.
>>> print(df.to_string())
                                   molecule  endpoint_label  measured_result
0  C[C@@H](Nc1cnc(-c2cncc(OCC(F)(F)F)c2)cn1)c1ccc(F)cc1            EC50         ≤ 200 nM
1  CS(=O)(=O)c1cncc(-c2cnc(N[C@@H]3CCc4ccccc43)cn2)c1            EC50         ≤ 200 nM
2  CC(O)c1cncc(-c2ccc(N[C@H](C)c3ccc(F)cc3)nc2)c1 (single isomer, unassigned) [Example 16b]            EC50          ≤ 50 nM

Task item: Value wanted: EC50 (UniProt Q9Y2T6) of entry "CCS(=O)(=O)c1cncc(-c2ccc(N[C@H](C)c3ccc(F)cc3)nc2)c1"
Reply: ≤ 200 nM

Task item: Value wanted: EC50 (UniProt Q9Y2T6) of entry "Cc1nc(N[C@H](C)c2ccc(F)cc2)ccc1-c1cncc(S(C)(=O)=O)c1"
Reply: ≤ 200 nM

Task item: Value wanted: EC50 (UniProt Q9Y2T6) of entry "C[C@@H](Nc1ccc(-c2cncc(Cl)c2)cn1)c1ccc(F)cc1"
Reply: ≤ 200 nM

Task item: Value wanted: EC50 (UniProt Q9Y2T6) of entry CS(=O)(=O)c1cncc(-c2ccc(NC3CCc4cc(F)ccc43)nc2)c1 (centres unmarked)
Reply: ≤ 1000 nM

Task item: Value wanted: EC50 (UniProt Q9Y2T6) of entry "CCc1cncc(-c2ccc(N[C@H](C)c3ccccc3)nc2)c1"
Reply: ≤ 50 nM

Task item: Value wanted: EC50 (UniProt Q9Y2T6) of entry "C[C@@H](Nc1ccc(-c2ccc3oc(=O)[nH]c3c2)cn1)c1ccc(F)cc1"
Reply: ≤ 1000 nM

Task item: Value wanted: EC50 (UniProt Q9Y2T6) of entry "C[C@@H](Nc1ncc(-c2ccc3oc(=O)n(CCO)c3c2)nn1)c1ccc(F)cc1"
Reply: ≤ 1000 nM

Task item: Value wanted: EC50 (UniProt Q9Y2T6) of entry "C[C@@H](Nc1cnc(-c2cncc(OC(F)(F)F)c2)cn1)c1ccc(F)cc1"
Reply: ≤ 50 nM

Task item: Value wanted: EC50 (UniProt Q9Y2T6) of entry "CCc1cncc(-c2ccc(N[C@H](C)c3ccc(OC)cc3)nc2)c1"
Reply: ≤ 1000 nM

Task item: Value wanted: EC50 (UniProt Q9Y2T6) of entry "Cc1cncc(-c2ccc(N[C@H](C)c3ccc(F)c(F)c3)nc2)c1"
Reply: ≤ 50 nM

Task item: Value wanted: EC50 (UniProt Q9Y2T6) of entry "C[C@@H](Nc1ccc(-c2cncc(C3CC3)c2)cn1)c1ccc(F)cc1"
Reply: ≤ 50 nM

Task item: Value wanted: EC50 (UniProt Q9Y2T6) of entry "C=Cc1cc(-c2cnc(N[C@H](C)c3ccc(F)cc3)cn2)cnn1"
Reply: ≤ 1000 nM

Task item: Value wanted: EC50 (UniProt Q9Y2T6) of entry Cc1cc(C(C)Nc2ncc(-c3ccc4oc(=O)n(C)c4c3)nn2)ccc1F (single isomer, unassigned) [Example 77a]
Reply: ≤ 1000 nM

Task item: Value wanted: EC50 (UniProt Q9Y2T6) of entry Cc1cncc(-c2ccc(NC(C)c3ccc(Cl)cc3)nc2)c1 (single isomer, unassigned) [Example 46a]
Reply: ≤ 1000 nM

###

Consider the following compounds and their measured pEC50 readings.
experimental-target: human GPR55 (Homo sapiens)
Sequence (Q9Y2T6 whole entry): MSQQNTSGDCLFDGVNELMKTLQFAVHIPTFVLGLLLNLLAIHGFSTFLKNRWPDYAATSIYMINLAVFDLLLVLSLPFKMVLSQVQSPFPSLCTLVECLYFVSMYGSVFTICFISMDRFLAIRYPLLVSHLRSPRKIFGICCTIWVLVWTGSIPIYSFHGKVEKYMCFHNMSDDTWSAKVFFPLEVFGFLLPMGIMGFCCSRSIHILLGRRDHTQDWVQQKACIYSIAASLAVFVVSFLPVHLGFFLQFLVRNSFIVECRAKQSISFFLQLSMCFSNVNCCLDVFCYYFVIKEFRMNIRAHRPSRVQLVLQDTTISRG
assay-details: Ca2+ mobilization assay (FLIPR, Calcium5 dye), human GPR55
condition-set: HEK293 cells co-expressing PK-tagged human GPR55 and EA-tagged beta-arrestin; intracellular calcium increase
pEC50: −log10 of the molar value.

>>> print(df.to_string())
                                   compound  endpoint_label  measured_result
0  C[C@@H](Nc1cnc(-c2cncc(C(O)C(F)(F)F)c2)cn1)c1ccc(F)cc1 (single isomer, unassigned) [Example 32a]           pEC50           ≥ 7.30
1  CCc1cncc(-c2ccc(N[C@@H]3CCc4ccccc43)nc2)c1           pEC50           ≥ 6.70
2  CC(Nc1cc(F)c(-c2cncc(S(C)(=O)=O)c2)cn1)c1ccc(F)cc1 (single isomer, unassigned) [Example 29b]           pEC50           ≥ 6.00

Task item: Value wanted: pEC50 (human GPR55 (Homo sapiens)) of entry "C[C@@H](Nc1ncc(-c2ccc3ncn(C)c3c2)nn1)c1ccc(F)cc1"
Reply: ≥ 6.00

Task item: Value wanted: pEC50 (human GPR55 (Homo sapiens)) of entry C[C@@H](Nc1cnc(-c2cncc(C(O)C(F)F)c2)cn1)c1ccc(F)cc1 (single isomer, unassigned) [Example 54a]
Reply: ≥ 6.00

Task item: Value wanted: pEC50 (human GPR55 (Homo sapiens)) of entry "C[C@@H](Nc1cnc(-c2cncc(CCO)c2)cn1)c1ccc(F)cc1"
Reply: ≥ 7.30

Task item: Value wanted: pEC50 (human GPR55 (Homo sapiens)) of entry "COCn1c(=O)oc2ccc(-c3cnc(N[C@H](C)c4ccc(F)cc4)nn3)cc21"
Reply: ≥ 6.70

Task item: Value wanted: pEC50 (human GPR55 (Homo sapiens)) of entry "C[C@@H](Nc1ncc(-c2ccc3oc(=O)n(C)c3c2)nn1)c1ccc(F)cc1F"
Reply: ≥ 6.00

Task item: Value wanted: pEC50 (human GPR55 (Homo sapiens)) of entry CC[S+]([O-])c1cncc(-c2ccc(N[C@H](C)c3ccc(F)cc3)nc2)c1 (some centres unmarked)
Reply: ≥ 6.70

Task item: Value wanted: pEC50 (human GPR55 (Homo sapiens)) of entry "C[C@@H](Nc1cnc(-c2ccc3oc(=O)n(C)c3c2)cn1)c1ccc(F)cc1"
Reply: ≥ 6.00

Task item: Value wanted: pEC50 (human GPR55 (Homo sapiens)) of entry "C[C@@H](Nc1ccc(-c2cncc(N(C)C)c2)cn1)c1ccc(F)cc1"
Reply: ≥ 6.00

Task item: Value wanted: pEC50 (human GPR55 (Homo sapiens)) of entry CC[S+]([O-])c1cncc(-c2cnc(N[C@H](C)c3ccc(F)cc3)cn2)c1 (some centres unmarked)
Reply: ≥ 6.70

###

experimental-target: human GPR55 (Homo sapiens)
assay-details: Ca2+ mobilization assay (FLIPR, Calcium5 dye), human GPR55
condition-set: HEK293 cells co-expressing PK-tagged human GPR55 and EA-tagged beta-arrestin; intracellular calcium increase
pEC50: −log10 of the molar value.
endpoint-label: pEC50

Below are worked cases with known answers.
>>> df
                                   compound  measured_result
0  C[C@@H](Nc1cnc(-c2cncc([S+](C)[O-])c2)cn1)c1ccc(F)cc1 (stereo partly shown)           ≥ 6.00
1  C[C@@H](Nc1ncc(-c2ccc3oc(=O)[nH]c3c2)nn1)c1ccc(F)cc1           ≥ 6.00
2  C[C@@H](Nc1cnc(-c2cncc(C=C(F)F)c2)cn1)c1ccc(F)cc1           ≥ 7.30
3  C[C@@H](Nc1ncc(-c2ccc3oc(=O)n(C(F)F)c3c2)nn1)c1ccc(F)cc1           ≥ 6.70
4  Cc1cncc(-c2ccc(N[C@H](C)c3ccc(F)cc3)nc2)c1C           ≥ 6.00

We next turn to a different compound, shown below.
Task item: Sample "Cc1cnc(C)c(-c2ccc(N[C@H](C)c3ccc(F)cc3)nc2)c1" — what was its pEC50?
Reply: ≥ 6.00

###

experimental-target: rat GPR55 (Rattus norvegicus, UniProt F1MAK4)
Sequence (F1MAK4 1-319): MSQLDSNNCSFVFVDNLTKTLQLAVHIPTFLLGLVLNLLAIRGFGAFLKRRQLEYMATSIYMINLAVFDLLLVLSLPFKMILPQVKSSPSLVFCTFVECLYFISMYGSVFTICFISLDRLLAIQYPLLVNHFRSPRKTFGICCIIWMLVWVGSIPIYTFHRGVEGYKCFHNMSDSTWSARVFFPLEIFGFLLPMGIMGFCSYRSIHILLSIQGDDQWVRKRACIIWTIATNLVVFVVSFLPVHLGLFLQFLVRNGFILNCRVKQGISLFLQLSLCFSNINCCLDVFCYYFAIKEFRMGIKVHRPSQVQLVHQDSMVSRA
assay-details: Ca2+ mobilization assay (FLIPR, Calcium5 dye), rat GPR55
condition-set: HEK293 cells co-expressing PK-tagged rat GPR55 and EA-tagged beta-arrestin; intracellular calcium increase
pEC50: −log10 of the molar value.
Consider the following compounds and their measured pEC50 readings.

Below are worked cases with known answers.
In [3]: df
Out[3]:
                                   compound  endpoint_label  measured_result
0  CCc1cncc(-c2ccc(N[C@H](C)c3ccc(OC)cc3)nc2)c1           pEC50           ≥ 5.30
1  CCc1cncc(-c2ccc(N[C@H](C)c3ccccc3F)nc2)c1           pEC50           ≥ 6.00
2  C[C@@H](Nc1ccc(-c2cncc(N(C)C)c2)cn1)c1ccc(F)cc1           pEC50           ≥ 5.30

We next turn to a different compound, shown below.
Task item: Sample C[C@@H](Nc1ccc(-c2cncc(S(C)(=N)=O)c2)cn1)c1ccc(F)cc1 (single isomer, unassigned) [Example 27a] — what was its pEC50?
Reply: ≥ 6.70
